- Tested on: A-549
- Test: Inhibition of cells growth by colorimetric assay (SRB), A-549
- Assay type: cell-based
- Details: Homo sapiens, A549, 48 h, read-out: LC50 A-549, A-549; SRB, 48 hours exposure
Observable: LC50 (concentration for 50% cell killing) (nM)
Numbers only, in nM.

Some compounds with known LC50 (concentration for 50% cell killing) results, for comparison:
C=COC(=O)Oc1cc2c(cc1OC)[C@@]1(CS[C@@H]3c4c(OC(C)=O)c(C)c5c(c4[C@H](COC1=O)N1C3[C@H]3c4c(cc(C)c(OC)c4O)C[C@@H]([C@@H]1C#N)N3C)OCO5)N(C(=O)OC=C)CC2 (stereo partly shown) [Compound 32] = 11
COc1cc2c(cc1OC(=O)C(F)(F)C(F)(F)C(F)(F)F)CCN[C@]21CS[C@@H]2c3c(OC(C)=O)c(C)c4c(c3[C@H](COC1=O)N1C2[C@H]2c3c(cc(C)c(OC)c3O)C[C@@H]([C@@H]1O)N2C)OCO4 (stereo partly shown) [Compound 74] = 6.38
COc1cc2c(cc1O)CCN[C@]21CS[C@@H]2c3c(OC(C)=O)c(C)c4c(c3[C@H](COC1=O)N1C2[C@H]2c3c(cc(C)c(OC)c3OC(C)C)C[C@@H]([C@@H]1C#N)N2C)OCO4 (stereo partly shown) [Compound 48] = 3890

Now examine the next entry.
Input C=COC(=O)N1CCc2cc(O)c(OC)cc2[C@@]12CS[C@@H]1c3c(OC(C)=O)c(C)c4c(c3[C@H](COC2=O)N2C1[C@H]1c3c(cc(C)c(OC)c3O)C[C@@H]([C@@H]2C#N)N1C)OCO4 (stereo partly shown) [Compound 33] . Output LC50 (concentration for 50% cell killing): 12700

----------
- Tested on: HMEC1
- Test: Inhibition of cells growth by colorimetric assay (SRB), HMEC1
- Type: cell-based
- Details: HMEC-1; SRB, 48 hours exposure
- Description: 2°.—Inhibition of Cells Growth by Colorimetric Assay. A colorimetric type of assay, using sulforhodamine B (SRB) reaction has been adapted for a quantitative measurement of cell growth and viability [following the technique described by Philip Skehan, et al. (1990), New colorimetric cytotoxicity assay for anticancer drug screening, J. Natl. Cancer Inst., 82:1107-1112] […] The values for mean+/−SD of data from triplicate wells are calculated. […]
Hi there, I'd appreciate the recorded HMEC-1 TGI for every entry that follows.

Examples with answers:
COc1cc2c(cc1OC(=O)Cc1cc(=O)oc3cc(N(C)C)ccc13)CCN[C@]21CS[C@@H]2c3c(OC(C)=O)c(C)c4c(c3[C@H](COC1=O)N1C2[C@H]2c3c(cc(C)c(OC)c3OC(=O)Cc3cc(=O)oc5cc(N(C)C)ccc35)C[C@@H]([C@@H]1O)N2C)OCO4 (stereo partly shown) [Compound 78] = 2.35E-07
COc1cc2c(cc1OC(=O)Cc1cc(=O)oc3cc(N(C)C)ccc13)CCN[C@]21CS[C@@H]2c3c(OC(C)=O)c(C)c4c(c3[C@H](COC1=O)N1C2[C@H]2c3c(cc(C)c(OC)c3OC(=O)Cc3cc(=O)oc5cc(N(C)C)ccc35)C[C@@H]([C@@H]1O)N2C)OCO4 (stereo partly shown) [Compound 77] = 5.28E-08
COC1=C(C)C(=O)C2=C(C1=O)[C@@H]1C3[C@@H]4SC[C@]5(NCCc6cc(O)c(OC)cc65)C(=O)OC[C@@H](c5c6c(c(C)c(OC(C)=O)c54)OCO6)N3[C@@H](O)[C@H](C2)N1C (stereo partly shown) = 1.17E-08
C=COC(=O)Oc1cc2c(cc1OC)[C@@]1(CS[C@@H]3c4c(OC(C)=O)c(C)c5c(c4[C@H](COC1=O)N1C3[C@H]3c4c(cc(C)c(OC)c4O)C[C@@H]([C@@H]1O)N3C)OCO5)N(C(=O)OC=C)CC2 (stereo partly shown) = 5.14E-08
COc1cc2c(cc1O)CCN(C)[C@]21CS[C@@H]2c3c(OC(C)=O)c(C)c4c(c3[C@H](COC1=O)N1C2[C@H]2c3c(cc(C)c(OC)c3O)C[C@@H]([C@@H]1O)N2C)OCO4 (stereo partly shown) = 1.55E-10
C=COC(=O)N1CCc2cc(O)c(OC)cc2[C@@]12CS[C@@H]1c3c(OC(C)=O)c(C)c4c(c3[C@H](COC2=O)N2C1[C@H]1c3c(cc(C)c(OC)c3O)C[C@@H]([C@@H]2O)N1C)OCO4 (stereo partly shown) = 2.80E-08

Next item in the queue.
Measured HMEC-1 TGI of COc1cc2c(cc1OC)[C@@]1(CS[C@@H]3c4c(OC(C)=O)c(C)c5c(c4[C@H](COC1=O)N1C3[C@H]3c4c(cc(C)c(OC)c4OC)C[C@@H]([C@@H]1O)N3C)OCO5)NCC2 (stereo partly shown) : 9.65E-08

----------
- Tested on: A-549
- Test: Inhibition of cells growth by colorimetric assay (SRB), A-549
- Assay type: cell-based
- Details: Homo sapiens, A549, 48 h, A-549; SRB, 48 hours exposure; read-out: A-549 GI50
Observable: GI50 (nM)
Answers are plain numbers, in nM.

Record excerpt, results attached:
COC1=C(C)C(=O)C2=C(C1=O)[C@@H]1C3[C@@H]4SC[C@]5(NCCc6cc(O)c(OC)cc65)C(=O)OC[C@@H](c5c6c(c(C)c(OC(C)=O)c54)OCO6)N3[C@@H](O)[C@H](C2)N1C (some centres unmarked) = 3.69
C=CCOC(=O)Oc1c(C)c2c(c3c1[C@H]1SC[C@]4(NCCc5cc(O)c(OC)cc54)C(=O)OC[C@@H]3N3C1[C@H]1c4c(cc(C)c(OC)c4O)C[C@@H]([C@@H]3O)N1C)OCO2 (some centres unmarked) = 0.124
COc1cc2c(cc1OC(=O)OC(C)(C)C)CCN[C@]21CS[C@@H]2c3c(OC(=O)[C@H](C)NC(=O)OC(C)(C)C)c(C)c4c(c3[C@H](COC1=O)N1C2[C@H]2c3c(cc(C)c(OC)c3O)C[C@@H]([C@@H]1C#N)N2C)OCO4 (some centres unmarked) = 1

// each listed molecule needs a value for GI50
1. COc1cc2c(cc1O)CCN[C@]21CS[C@@H]2c3c(OC(=O)CCCC[C@@H]4SCC5NC(=O)NC54)c(C)c4c(c3[C@H](COC1=O)N1C2[C@H]2c3c(cc(C)c(OC)c3O)C[C@@H]([C@@H]1C#N)N2C)OCO4 (some centres unmarked)
2. C=COC(=O)N1CCc2cc(O)c(OC)cc2[C@@]12CS[C@@H]1c3c(OC(C)=O)c(C)c4c(c3[C@H](COC2=O)N2C1[C@H]1c3c(cc(C)c(OC)c3O)C[C@@H]([C@@H]2O)N1C)OCO4 (some centres unmarked)
3. C=COC(=O)Oc1cc2c(cc1OC)[C@@]1(CS[C@@H]3c4c(OC(C)=O)c(C)c5c(c4[C@H](COC1=O)N1C3[C@H]3c4c(cc(C)c(OC)c4O)C[C@@H]([C@@H]1O)N3C)OCO5)N(C(=O)OC=C)CC2 (some centres unmarked)
4. COc1cc2c(cc1O)CCN[C@]21CS[C@@H]2c3c(OC(C)=O)c(C)c4c(c3[C@H](COC1=O)N1C2[C@H]2c3c(cc(C)c(OC)c3OC(C)C)C[C@@H]([C@@H]1O)N2C)OCO4 (some centres unmarked)
5. COc1cc2c(cc1O)CCN[C@]21CS[C@@H]2c3c(OC(=O)CCCC[C@@H]4SCC5NC(=O)NC54)c(C)c4c(c3[C@H](COC1=O)N1C2[C@H]2c3c(cc(C)c(OC)c3OC(=O)CCCCC3SCC5NC(=O)NC53)C[C@@H]([C@@H]1C#N)N2C)OCO4 (some centres unmarked)

**Result**
1. 32.6
2. 26.8
3. 29.8
4. 152
5. 255

----------
- System: PANC-1
- Test: Inhibition of cells growth by colorimetric assay (SRB), PANC-1
- Type: cell-based
- Details: read-out: PANC-1 LC50; PANC-1; SRB, 48 hours exposure
Observable: LC50 (concentration for 50% net cell kill)
Remember to put the unit after the number in your answer.

COc1cc2c(cc1OC(=O)Cc1cc(=O)oc3cc(N(C)C)ccc13)CCN[C@]21CS[C@@H]2c3c(OC(C)=O)c(C)c4c(c3[C@H](COC1=O)N1C2[C@H]2c3c(cc(C)c(OC)c3OC(=O)Cc3cc(=O)oc5cc(N(C)C)ccc35)C[C@@H]([C@@H]1O)N2C)OCO4 (stereo partly shown) has a reported LC50 (concentration for 50% net cell kill) of 4.9 µM

----------
- System: PANC-1
- Test: Inhibition of cells growth by colorimetric assay (SRB), PANC-1
- Type: cell-based
- Details: Homo sapiens, PANC-1, 48 h, read-out: PANC-1 LC50, SRB assay, 48 hours exposure
Observable: log10 of LC50 (concentration for 50% net cell kill) (log10 of the value in µM)
Please interpret these as log10 of LC50 (concentration for 50% net cell kill) where LC50 (concentration for 50% net cell kill) is in µM.

Field: example entries. Status: answers known.
COc1cc2c(cc1OC(=O)OC(C)(C)C)CCN[C@]21CS[C@@H]2c3c(OC(=O)[C@H](C)NC(=O)OC(C)(C)C)c(C)c4c(c3[C@H](COC1=O)N1C2[C@H]2c3c(cc(C)c(OC)c3O)C[C@@H]([C@@H]1O)N2C)OCO4 (stereo partly drawn) [Compound 175] = 1.00
COc1cc2c(cc1O)CCN[C@]21CS[C@@H]2c3c(OC(=O)C(F)(F)C(F)(F)C(F)(F)F)c(C)c4c(c3[C@H](COC1=O)N1C2[C@H]2c3c(cc(C)c(OC)c3O)C[C@@H]([C@@H]1O)N2C)OCO4 (stereo partly drawn) [Compound 167] = 1.04
COc1cc2c(cc1O)CCN[C@]21CS[C@@H]2c3c(OC(=O)CCCCC4SCC5NC(=O)NC54)c(C)c4c(c3[C@H](COC1=O)N1C2[C@H]2c3c(cc(C)c(OC)c3O)C[C@@H]([C@@H]1O)N2C)OCO4 (stereo partly drawn) [Compound 171] = 0.03
COc1cc2c(cc1O)CCN[C@]21CS[C@@H]2c3c(OC(=O)CCCCC4SCC5NC(=O)NC54)c(C)c4c(c3[C@H](COC1=O)N1C2[C@H]2c3c(cc(C)c(OC)c3OC(=O)CCCCC3SCC5NC(=O)NC53)C[C@@H]([C@@H]1O)N2C)OCO4 (stereo partly drawn) [Compound 172] = 0.93
COc1cc2c(cc1O)CCN[C@]21CS[C@@H]2c3c(O)c(C)c4c(c3[C@H](COC1=O)N1C2[C@H]2c3c(cc(C)c(OC)c3O)C[C@@H]([C@@H]1O)N2C)OCO4 (stereo partly drawn) [Et-701] = -0.69

Consider the additional compound presented here.
The compound identified as C=COC(=O)Oc1c(C)c2c(c3c1[C@H]1SC[C@]4(NCCc5cc(OC(=O)OC(C)(C)C)c(OC)cc54)C(=O)OC[C@@H]3N3C1[C@H]1c4c(cc(C)c(OC)c4O)C[C@@H]([C@@H]3O)N1C)OCO2 (stereo partly drawn) [Compound 176] registered its log10 of LC50 (concentration for 50% net cell kill) at 0.51
